Values were extracted from the supplement of paper PMC9112550.

Test system: Escherichia coli TOP10
Test: shrunken log2 fold change of peptide-encoding DNA abundance (4.5 h post-induction vs induction); higher = less antimicrobial activity (less host growth inhibition)
Conditions: time post-induction: 4.5 h; library: site-saturation at positions 5, 18, 19, 20
Consider the following sequences and their measured shrunken log2 fold change readings.

Look over these answered cases.
Ask: Give the measured shrunken log2 fold change for RRIRTRPPRLPRPRPRPESDPRP
Result: -0.0712

Ask: Give the measured shrunken log2 fold change for RRIRARPPRLPRPRPRPFTWPRP
Result: -0.193

Ask: Give the measured shrunken log2 fold change for RRIRMRPPRLPRPRPRPHCEPRP
Result: -0.0828

Ask: Give the measured shrunken log2 fold change for RRIRSRPPRLPRPRPRPGTGPRP
Result: 0.103

Ask: Give the measured shrunken log2 fold change for RRIRMRPPRLPRPRPRPFNTPRP
Result: -0.0396

More entries:
Ask: Give the measured shrunken log2 fold change for RRIRWRPPRLPRPRPRPWTAPRP
Result: 0.306

Ask: Give the measured shrunken log2 fold change for RRIRGRPPRLPRPRPRPAWVPRP
Result: 0.456

Ask: Give the measured shrunken log2 fold change for RRIRLRPPRLPRPRPRPYPRPRP
Result: -0.0678

Ask: Give the measured shrunken log2 fold change for RRIRKRPPRLPRPRPRPDQRPRP
Result: 0.458

Ask: Give the measured shrunken log2 fold change for RRIRRRPPRLPRPRPRPLDAPRP
Result: 0.472

Ask: Give the measured shrunken log2 fold change for RRIRCRPPRLPRPRPRPYPTPRP
Result: -0.517

Ask: Give the measured shrunken log2 fold change for RRIRWRPPRLPRPRPRPPGDPRP
Result: 0.88

Ask: Give the measured shrunken log2 fold change for RRIRERPPRLPRPRPRPLSGPRP
Result: -0.135

Ask: Give the measured shrunken log2 fold change for RRIRERPPRLPRPRPRPPPDPRP
Result: 0.505

----------
System: Escherichia coli TOP10
Test: shrunken log2 fold change of peptide-encoding DNA abundance (4.5 h post-induction vs induction); higher = less antimicrobial activity (less host growth inhibition)
Details: time post-induction: 4.5 h; library: site-saturation at positions 5, 18, 19, 20
Outcome: y for shrunken log2 fold change of at least -0.01; n for anything lower.

Example results:
Ask: Reported shrunken log2 fold change reaches at least -0.01 for RRIRNRPPRLPRPRPRPTCIPRP ?
Result: n

Ask: Reported shrunken log2 fold change reaches at least -0.01 for RRIRRRPPRLPRPRPRPADMPRP ?
Result: n

Ask: Reported shrunken log2 fold change reaches at least -0.01 for RRIRSRPPRLPRPRPRPPGPPRP ?
Result: y

Ask: Reported shrunken log2 fold change reaches at least -0.01 for RRIRERPPRLPRPRPRPRCQPRP ?
Result: n

More entries:
Ask: Reported shrunken log2 fold change reaches at least -0.01 for RRIRCRPPRLPRPRPRPHDPPRP ?
Result: y

----------
Tested on: Escherichia coli TOP10;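 also: peptides expressed intracellularly from a pBAD plasmid library in pooled LB shake-flask culture, induced with 0.3% L-arabinose, DNA abundance read by NGS, three biological replicates, DESeq2 with apeglm shrinkage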
Assay: shrunken log2 fold change of peptide-encoding DNA abundance (4.5 h post-induction vs induction); higher = less antimicrobial activity (less host growth inhibition)
Details: time post-induction: 4.5 h; library: site-saturation at positions 5, 18, 19, 20
Outcome: T for shrunken log2 fold change of at least 0.06; F for anything lower.

Ask: Reported shrunken log2 fold change reaches at least 0.06 for RRIRHRPPRLPRPRPRPLSRPRP ?
Result: T

More entries:
Ask: Reported shrunken log2 fold change reaches at least 0.06 for RRIRWRPPRLPRPRPRPYIIPRP ?
Result: F
